Entries and their IC50 values follow.
tested.system: UniProtKB P53779
Sequence (P53779 whole entry): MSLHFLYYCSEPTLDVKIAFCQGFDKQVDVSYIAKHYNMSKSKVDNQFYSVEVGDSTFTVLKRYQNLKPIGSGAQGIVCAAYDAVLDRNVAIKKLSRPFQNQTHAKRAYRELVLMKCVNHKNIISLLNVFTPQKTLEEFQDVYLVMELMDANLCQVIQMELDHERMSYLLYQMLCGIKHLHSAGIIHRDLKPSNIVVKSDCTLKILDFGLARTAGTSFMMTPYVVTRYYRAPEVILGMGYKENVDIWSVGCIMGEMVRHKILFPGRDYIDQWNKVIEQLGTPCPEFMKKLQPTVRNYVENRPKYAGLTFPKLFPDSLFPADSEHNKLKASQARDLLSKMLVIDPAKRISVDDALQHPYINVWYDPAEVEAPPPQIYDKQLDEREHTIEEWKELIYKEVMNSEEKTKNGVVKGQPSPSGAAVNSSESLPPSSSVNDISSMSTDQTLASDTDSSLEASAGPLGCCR
experiment.summary: JNK3 SPA assay (phosphorylation of GST-c-Jun)
Format: biochemical
conditions: GST-c-Jun substrate, [γ-33P] ATP, 30 minutes at room temperature
recorded.endpoint: IC50

>>> result("C#CCOc1cnc2[nH]cc(-c3cnn(C)c3)c2c1")
"< 500 nM"
>>> result("CCCCSc1cnc2[nH]cc(-c3cnn(C)c3)c2c1")
"< 100 nM"
>>> result("Cn1cc(-c2c[nH]c3ncc(CC4=CCCCC4)cc23)cn1")
"< 200 nM"
>>> result("Cn1cc(-c2c[nH]c3ncc(CCCCO)cc23)cn1")
"< 1000 nM"
>>> result("CC(C)Cc1cnc2[nH]cc(-c3csc(C(=O)N4CCN(C)CC4)n3)c2c1")
"< 100 nM"
>>> result("CC(C)Cc1cnc2[nH]cc(-c3csc(C4CCN(C)CC4)n3)c2c1")
"< 1000 nM"
>>> result("CCCCCCCCc1cnc2[nH]cc(-c3cnn(C)c3)c2c1")
"< 100 nM"
>>> result("CC(C)Cc1cnc2[nH]cc(-c3cnn(C)c3)c2c1")
"< 100 nM"
>>> result("CCCCCc1cnc2[nH]cc(-c3csc(C(=O)N4CCN(C)CC4)n3)c2c1")
"< 200 nM"
>>> result("CN(C)c1cccc(Sc2cnc3[nH]cc(-c4cnn(C)c4)c3c2)c1")
"< 200 nM"
>>> result("Cc1cccc(Oc2cnc3[nH]cc(-c4cnn(C)c4)c3c2)c1")
"< 1000 nM"

All figures here come from patent US20100035878A1.
